Each recorded value in this set is attributed to patent US9169260B2.

Could you please report measured IC50 for the items listed next?
system.tested: GST tagged IRAK-4 (Homo sapiens (Human), UniProt Q9NWZ3)
Sequence (Q9NWZ3 whole entry): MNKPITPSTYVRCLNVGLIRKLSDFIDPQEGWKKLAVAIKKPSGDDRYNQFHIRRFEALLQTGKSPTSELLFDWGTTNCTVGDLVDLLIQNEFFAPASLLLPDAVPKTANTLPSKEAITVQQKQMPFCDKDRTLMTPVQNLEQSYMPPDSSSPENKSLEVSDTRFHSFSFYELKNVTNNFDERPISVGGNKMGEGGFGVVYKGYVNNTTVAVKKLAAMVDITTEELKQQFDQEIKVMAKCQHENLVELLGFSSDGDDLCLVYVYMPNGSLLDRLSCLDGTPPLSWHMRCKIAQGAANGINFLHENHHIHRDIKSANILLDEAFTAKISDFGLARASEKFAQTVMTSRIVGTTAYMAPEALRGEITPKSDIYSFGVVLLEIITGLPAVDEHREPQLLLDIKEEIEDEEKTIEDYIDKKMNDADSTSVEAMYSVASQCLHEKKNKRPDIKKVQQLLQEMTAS
experimental.protocol: IRAK-4 Kinase Assay (IMAP fluorescence polarization)
Type: biochemical
experimental.setup: 100 μM ATP, 30 minutes at 25° C.; μM

Name the reported IC50 value associated with the compound COc1ccc(-c2cc(NC(=O)c3cnn4cccnc34)n(-c3cccc(F)c3)n2)cc1
< 1 µM

Name the reported IC50 value associated with the compound Cc1ccc(-n2nc(C3(C)CCN(S(C)(=O)=O)CC3)cc2NC(=O)c2cnn3cccnc23)cc1
> 1 µM

Name the reported IC50 value associated with the compound Cc1ccc(-n2nc(C3CCN(Cc4ccncc4)CC3)cc2NC(=O)c2cnn3cccnc23)cc1
< 1 µM

Name the reported IC50 value associated with the compound O=C(Nc1cc(C2CCN(CC(F)(F)F)CC2)nn1-c1ccc(C2CC2)cc1F)c1cnn2cccnc12
< 1 µM

Name the reported IC50 value associated with the compound COc1ccc(S(=O)(=O)N2CCC(c3cc(NC(=O)c4cnn5cccnc45)n(-c4ccc(C)cc4)n3)CC2)c(OC)c1
< 1 µM

Name the reported IC50 value associated with the compound CS(=O)(=O)N1CCC(c2cc(NC(=O)c3cnn4cccnc34)n(-c3ccc(F)cc3F)n2)CC1
< 1 µM

Name the reported IC50 value associated with the compound COCCOC(=O)N1CC(N2CCC(c3cc(NC(=O)c4cnn5cccnc45)n(-c4ccc(C)cc4)n3)CC2)C1
< 1 µM

Name the reported IC50 value associated with the compound COc1ccc(-n2nc(C3CCN(S(=O)(=O)C(F)(F)F)CC3)cc2NC(=O)c2cnn3cccnc23)cc1
> 1 µM

Name the reported IC50 value associated with the compound O=C(Nc1cc(C2CCNCC2)nn1-c1cc(F)cc(F)c1)c1cnn2cccnc12
> 1 µM

Name the reported IC50 value associated with the compound Cc1ccc(-n2nc(-c3ccc(F)cc3)cc2NC(=O)c2cnn3cccnc23)cc1
> 1 µM

Name the reported IC50 value associated with the compound Cc1ccc(-n2nc(C3CCC(C(N)=O)CC3)cc2NC(=O)c2cnn3cccnc23)cc1 (stereo not shown)
< 1 µM

Name the reported IC50 value associated with the compound CC(=O)N1CC(N2CCC(c3cc(NC(=O)c4cnn5cccnc45)n(-c4ccc(C)cc4)n3)CC2)C1
< 1 µM

Name the reported IC50 value associated with the compound Cc1ccc(-n2nc(C3CCNCC3)cc2NC(=O)c2cnn3cc(Br)cnc23)cc1
< 1 µM

Name the reported IC50 value associated with the compound O=C(Nc1cc(-c2ccncc2)nn1-c1ccc(F)cc1)c1cnn2cccnc12
< 1 µM

Name the reported IC50 value associated with the compound Cc1ccc(-n2nc(C3CCN(C)CC3)cc2NC(=O)c2cnn3cccnc23)cc1
< 1 µM

Name the reported IC50 value associated with the compound Cc1ccc(-n2nc(C3CCN(S(=O)(=O)c4ccc(C#N)cc4)CC3)cc2NC(=O)c2cnn3cccnc23)cc1
< 1 µM
